B1: KRT18 (parent)
chain: RAQYDELARKNREELDKYWSQQIE

Variants of: B1
Assay: protein stability index of a GFP-peptide fusion (GPS, HEK-293T) (PSI 1-6); higher = more stable;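 note: lentivirally expressed fusions sorted by FACS into six bins by GFP to DsRed ratio, PSI derived from sequencing read proportions per bin multiplied by bin number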
Conditions: c terminus: a fixed tail appended
Outcome: class 1 for protein stability index of at least 3; class 0 for anything lower.

Residue sequence	Class
RAQYDELARKNREELDKYWSQQVE [I23V]	class 1
RAQYDELARKNREELDKYWSQGIE [Q22G]	class 1
RAQYDELARKNREELDKYWSQQKE [I23K]	class 1
RAQYDWLARKNREELDKYWSQQIE [E6W]	class 0
RAQYDELARKNREELDKYWYQQIE [S20Y]	class 0
RAQYDELARKNREELNKYWSQQIE [D16N]	class 0
RAQYDELARKNREELDKYWRQQIE [S20R]	class 0
RAQYDELARKNEEELDKYWSQQIE [R12E]	class 1
RAQYDELARKAREELDKYWSQQIE [N11A]	class 1
RAQYDELARKDREELDKYWSQQIE [N11D]	class 1
RAQYDTLARKNREELDKYWSQQIE [E6T]	class 1
RAQYDELARKSREELDKYWSQQIE [N11S]	class 1
RAQYDELARKNREELDKYWSQQDE [I23D]	class 1
RAQYDEVARKNREELDKYWSQQIE [L7V]	class 1
RAQYDELRRKNREELDKYWSQQIE [A8R]	class 1
RAQYDPLARKNREELDKYWSQQIE [E6P]	class 1
RAQYDEMARKNREELDKYWSQQIE [L7M]	class 0
RAQYDELARPNREELDKYWSQQIE [K10P]	class 1
RAQYDELARKNREELDAYWSQQIE [K17A]	class 0
RAQYDELARKNREELDKYWSQQIS [E24S]	class 1
RAQYDELARKNREILDKYWSQQIE [E14I]	class 0
RAQYDELARKNREELDKYWSQQGE [I23G]	class 1
RAQYDELAVKNREELDKYWSQQIE [R9V]	class 0
RAQYDELARKNREELDPYWSQQIE [K17P]	class 1
RAQYDRLARKNREELDKYWSQQIE [E6R]	class 1
RAQYDELARKNSEELDKYWSQQIE [R12S]	class 1
RAQYDELARKGREELDKYWSQQIE [N11G]	class 1
RAQYDLLARKNREELDKYWSQQIE [E6L]	class 0
RAQYDELARKNREELDKVWSQQIE [Y18V]	class 1
RAQYDELARKNREELHKYWSQQIE [D16H]	class 1
RAQYDELARKNREELAKYWSQQIE [D16A]	class 0
RAQYDDLARKNREELDKYWSQQIE [E6D]	class 1
RAQYDELAEKNREELDKYWSQQIE [R9E]	class 1
RAQYDELARKNREWLDKYWSQQIE [E14W]	class 1
RAQYDELARKNRAELDKYWSQQIE [E13A]	class 1
RAQYDELARKHREELDKYWSQQIE [N11H]	class 1
RAQSDELARKNREELDKYWSQQIE [Y4S]	class 1
RAQYDELARKNREELDKYWSQTIE [Q22T]	class 1
RAQYRELARKNREELDKYWSQQIE [D5R]	class 0
RAQYDNLARKNREELDKYWSQQIE [E6N]	class 1
RAQRDELARKNREELDKYWSQQIE [Y4R]	class 1
RAQYDELARKNREELDKYWSQRIE [Q22R]	class 1
